Every entry's value here was drawn from patent US20250026813A1.

The binders listed here are annotated with their PV neutralization % (Ab 1 ug/mL).
SYSTEM_UNDER_TEST: SARS-CoV-2 spike protein bearing furin mutation and truncation in retention sequence, on pseudoviral particles (SARS-CoV-2, UniProt P0DTC2 14-1255)
ASSAY_NAME: cell-based or functional assay
Form entry: value (%) — number only.

* YANG-1106 (antibody, V domains shown) VH: EVQLVESGGGLIQPGGSLRLSCAASEFIVSRNYMSWVRQAPGKGLEWVSVIYSGGSTFYADSVRGRFTISRDNSKNTLYLQMNSLRAEDTAVYYCARDYGDQYFDYWGQGTLVTVSS VL: EMVMTQSPATLSVSPGEKATLSCRASQTVSTNLAWYQQKPGQSPRLLIYGASTRATGIPARFSGSGSGTEFTLTISSLQSEDFAIYYCQQYVDWPRTFGQGTTVEIK | 99.5

Below: the item to evaluate.
[Q] Which PV neutralization % (Ab 1 ug/mL) value is on record for YANG-1205 (antibody, V domains shown) VH: QVQLVQSGAEVKKPGASVKVSCKASGYTFTSYCIHWVRQAPGQGLEWMGIINPSGGGTIFAQKFQGRVTMTRDTSTTTVYMELGSLRSDDTALYYCARGWSYDFWSGPDYWGQGTLVSVSS VL: DIVMTQTPLSLSVTPGQPASISCKSSQSLLHSDGKTYLYWYLQKPGQPPQLLIYEVSNRFSGVPDRFSGSGSGTDFTLKISRVGAEDVGIYYCMHSIKLPPTFGQGTKVEIK ?
[A] 40.2
